Test system: SK-MEL-5
protocolText: NCI tumour cell line growth inhibition, 48 h
Activity calls are given as the source filed them. Cut-off read from the data, not from the text of the source: active = GI50 up to about 1.1 µM and inactive = higher.
Possible outcomes: active, inactive

molecule="CCC1C(C#N)=C(N)OC2=C1C(=O)CC(C)(C)C2 (stereo unspecified)" assignedclass=inactive
molecule=Sc1nnc(CCCCCCCCc2nnc(S)o2)o1 assignedclass=inactive
molecule=N#Cc1c(=O)c2cc([N+](=O)[O-])ccc2n2c1[nH]c1ccccc12 assignedclass=inactive
molecule=CN(C)CCNc1nc(-c2ccc3ccccc3c2)nc2[nH]cnc12 assignedclass=inactive
molecule=COc1ccc([N+](=O)[O-])c2c(NCCCN(C)C)c(C)c(C)nc12 assignedclass=inactive
molecule="N#CC(c1ccc(Cl)cc1)c1c(=O)[nH]c2ccc(N)cc2[n+]1[O-] (stereo unspecified)" assignedclass=inactive
molecule="CCCCCCCCC[C@@H]1C[C@@H]2CCC3C(C(=O)OC)=C(C)N=C(N1)N32 (stereo partly specified)" assignedclass=inactive
molecule=O=C(O)CSCC(=O)Nc1ccc2cccc3c2c1CC3 assignedclass=inactive
molecule="O=C(O)C1=NN(c2ccc(S(=O)(=O)O)cc2)C2(C1)SCC(=O)N2c1nc2ccccc2s1 (stereo unspecified)" assignedclass=inactive
molecule="CCN(CC)CCNC(=O)C1COc2ccc(-c3cc(=O)c4ccccc4o3)cc2O1 (stereo unspecified)" assignedclass=inactive
molecule=O=c1oc2ccccc2cc1-c1cc2ccccn2c1 assignedclass=inactive
molecule=COc1cc(/C=C\c2ccc(Br)cc2)cc(OC)c1OC assignedclass=active
molecule="O=C(CC(O)(C(F)(F)F)C(F)(F)F)C(CCCl)C(O)(C(F)(F)F)C(F)(F)F (stereo unspecified)" assignedclass=inactive
molecule=COc1ccc2c(C(=O)c3c(C)n(CCN4CCOCC4)c4ccccc34)cccc2c1 assignedclass=inactive
molecule=O=[N+]([O-])C(=C1NCCN1)/C(Cl)=C(\Cl)Br assignedclass=inactive
molecule="C/C(=C/CC[C@](C)(OC1OC(CO)C(O)C(O)C1OC1OC(C)C(O)C(O)C1O)[C@H]1CC[C@]2(C)[C@@H]1CC[C@@H]1[C@@]3(C)CC[C@H](O)C(C)(C)[C@@H]3C[C@H](O)[C@]12C)CO (stereo partly specified)" assignedclass=inactive
molecule=COc1ccc(OC(C)=O)c2c1CCC=CC2=O assignedclass=inactive
molecule="COc1ccccc1C1c2cc3c(cc2OC(N2CCOCC2)C1C)OCO3 (stereo unspecified)" assignedclass=inactive
molecule=O=c1[nH]c(=O)n(COCc2ccccc2)c2ccccc12 assignedclass=inactive
molecule=O=C1CCC(=O)N1CNc1ccc2c(c1)Sc1ccccc1O2 assignedclass=inactive
molecule=COc1ccc(/C=c2\sc3nnc(CCC(=O)Nc4cccc(C(F)(F)F)c4)n3c2=O)cc1 assignedclass=inactive
molecule=CCCCn1c(C)c(C(=O)OCC)s/c1=N/Nc1nc2ccccc2nc1-c1ccccc1 assignedclass=inactive
molecule="O=C(O)C1C(=O)Oc2c(cccc2[N+](=O)[O-])C1O (stereo unspecified)" assignedclass=inactive
molecule="COc1ccc2c(c1)CC1NC2Cc2ccccc21 (stereo unspecified)" assignedclass=inactive
molecule=O=C1c2ccccc2S(=O)(=O)c2c1cccc2[N+](=O)[O-] assignedclass=active
molecule="CC(C)=CC1C(COC(=O)c2cc3c(cc2Cl)OCO3)C1(C)C (stereo unspecified)" assignedclass=inactive
molecule=N#CC(C#N)=Cc1c(O)ccc2ccccc12 assignedclass=inactive
molecule=O=C(CCCCCCCCC(=O)N1C(=O)CC(=O)N(c2ccccc2)C1=S)N1C(=O)CC(=O)N(c2ccccc2)C1=S assignedclass=inactive
molecule="CC1(C)C2C=C(CCN3CCOCC3)CC1C2 (stereo unspecified)" assignedclass=inactive
molecule=CCc1nc(N)nc(N)c1-c1ccc([N+](=O)[O-])c(Cl)c1 assignedclass=inactive
molecule=O=C1/C(=C/c2ccc(O)c(O)c2)CC/C1=C\c1ccc(O)c(O)c1 assignedclass=inactive
molecule=N=C(N)N/N=C/c1c[nH]c2ccccc12 assignedclass=inactive
molecule="C=C(C)CCC(O)[C@](C)(O)[C@H]1[C@H](O)C[C@@]2(C)[C@@H]3CCc4c(cc(OC5OC(CO)C(O)C(O)C5O)c(O)c4C)C3(C)C(=O)C[C@]12C (stereo partly specified)" assignedclass=inactive
molecule=COc1cc(-c2oc(/C=N/c3ccccc3)c([N+](=O)[O-])c2-c2ccc(O)c(OC)c2)ccc1O assignedclass=inactive
molecule="COc1ccc(C2c3cc4c(cc3OC(O)(CO)C2C(=O)O)OCO4)cc1.COc1ccc(C2c3cc4c(cc3OC3(O)COC(=O)C23)OCO4)cc1 (stereo unspecified)" assignedclass=inactive
molecule=CCC1=CC2CN3Cn4c(c(COCc5c6n(c7ccccc57)CN5CC7C=C(CC)C5C6(C(=O)OC)C7)c5ccccc54)C(C(=O)OC)(C2)C13 assignedclass=inactive
molecule="c1ccc2c(Cc3c[nH]c4ccccc34)c[nH]c2c1 [ARUNDINE]" assignedclass=inactive
molecule="O=C(NN1C(=O)C(Cl)C1c1cccc(O)c1)c1ccccc1O (stereo unspecified)" assignedclass=inactive
molecule=CC(C)OP(=O)(NC(=S)c1ccccc1)OC(C)C assignedclass=inactive
molecule=O=[N+]([O-])c1ccc2c(c1)C1=C(CO2)Cc2ccccc2O1 assignedclass=inactive
molecule="CCOC(=O)C1(C(=O)OCC)CCC(C(OC)OC)C(CC(=O)OC)C1 (stereo unspecified)" assignedclass=inactive

* * *

System: HL-60
protocolText: NCI tumour cell line growth inhibition, 48 h
Active and inactive are the calls of the source. Rule as the data show it: active = GI50 up to about 1.1 µM and inactive = higher.
Outcome codes: 1.0 (active), 0.0 (inactive)

compound=CC(C)C(=O)NS(=O)(=O)c1ccccc1 assignedclass=0.0
compound="COc1ccc(C2c3cc4c(cc3OC(O)(CO)C2C(=O)O)OCO4)cc1.COc1ccc(C2c3cc4c(cc3OC3(O)COC(=O)C23)OCO4)cc1 (configuration not stated)" assignedclass=0.0
compound=O=C(O)/C=C\C(=O)Nc1ccccn1 assignedclass=0.0
compound="COc1cc(C(c2cc3c(cc2O)OCO3)N2CCCC2)cc(OC)c1OC (configuration not stated)" assignedclass=0.0
compound="N=C(N)N/N=C(/CC1OC(=O)c2ccccc21)c1ccc2ccccc2c1 (configuration not stated)" assignedclass=0.0
compound=c1ccc2c(Nc3ccc(Oc4ccc(Nc5c6ccccc6nc6ccccc56)cc4)cc3)c3ccccc3nc2c1 assignedclass=1.0
compound=c1ccc(-c2nnc(SCc3c[nH]c4ccccc34)n2-c2ccccc2)cc1 assignedclass=0.0
compound=O=C1c2ccoc2C(=O)c2oc(=O)ccc21 assignedclass=0.0
compound=Cc1cc(C)n(-c2nc(C)c(CCO)c(=O)[nH]2)n1 assignedclass=0.0
compound="CCN(CC)CCNC(=O)C1COc2ccc(-c3cc(=O)c4ccccc4o3)cc2O1 (configuration not stated)" assignedclass=0.0
compound="CC1(C)C(=O)C2(C#N)CCC1C2 (configuration not stated)" assignedclass=0.0
compound=Cc1cc2c(O)c(c1)COCc1cc(C)cc(c1O)COCc1cc(C)cc(c1O)COC2 assignedclass=0.0
compound="OC(c1cc2ccccc2[nH]1)C1(c2cccnc2)SCCCS1 (configuration not stated)" assignedclass=0.0
compound="CC1(C)c2ccccc2N2O[C@@H]3C(=O)N(c4ccccc4)C(=O)[C@@H]3C21c1ccccc1 (some centres not stated)" assignedclass=0.0
compound=C#C[C@]1(O)CC[C@H]2[C@@H]3CCC4=C/C(=N/OC(=O)c5cccc6cc7ccccc7nc56)CC[C@@H]4[C@H]3CC[C@@]21CC assignedclass=0.0
compound=N#C/N=C(/NCCc1c[nH]c2ccccc12)Oc1ccccc1 assignedclass=0.0
compound=COC(=O)Cc1nn2c(nc1=O)sc1ccc3ccccc3c12 assignedclass=0.0
compound="N#CC1CNC(N)NC1N (configuration not stated)" assignedclass=0.0
compound=CCCCCCCCCCCC(=O)c1c(O)cccc1O assignedclass=0.0
compound=COc1ccc(-c2cc(=O)c3c(O)cc(C)cc3o2)cc1OC assignedclass=0.0
compound=S=C(Nc1ccccc1)c1ccc(CN2CCCCC2)s1 assignedclass=0.0
compound=COc1cc(NS(=O)(=O)c2ccc(C)cc2)c2nccnc2c1 assignedclass=0.0

* * *

Test system: NCI-H226
protocolText: NCI tumour cell line growth inhibition, 48 h
The source made the active and inactive calls. Cut-off read from the data, not from the text of the source: active = GI50 up to about 1.1 µM and inactive = higher.
valueType: GI50

compound=Cc1ccc(C)c(COCCOCn2cc(Br)c(N)nc2=O)c1 experimentaltarget=NCI-H226 valuetype=GI50 valuemeasured="> 100 µM (inactive)"
compound=NC(=O)N/C=C1\C(=O)Oc2ccccc2C1=O experimentaltarget=NCI-H226 valuetype=GI50 valuemeasured="> 100 µM (inactive)"
compound="C=CCNC(=O)N(CCCC(NC(C)=O)C(=O)NCc1ccccc1)Cc1ccccc1 (stereo unspecified)" experimentaltarget=NCI-H226 valuetype=GI50 valuemeasured="> 100 µM (inactive)"
compound=Cc1cc(=O)oc2cc(OC(=O)N(CCCl)CCCl)ccc12 experimentaltarget=NCI-H226 valuetype=GI50 valuemeasured="> 100 µM (inactive)"
compound="CC1CC(N2CCOCC2)=Nc2ccccc2N1Cc1ccccc1 (stereo unspecified)" experimentaltarget=NCI-H226 valuetype=GI50 valuemeasured="51.2 µM (inactive)"
compound="O=C(O)C1C(=O)Oc2c(cccc2[N+](=O)[O-])C1O (stereo unspecified)" experimentaltarget=NCI-H226 valuetype=GI50 valuemeasured="> 100 µM (inactive)"
compound="OC(CC1CCCCN1)c1ccc2c(c1)oc1ccccc12 (stereo unspecified)" experimentaltarget=NCI-H226 valuetype=GI50 valuemeasured="74.5 µM (inactive)"
compound=N/N=C1\C(OC(=O)Nc2ccccc2)=Nc2ccccc21 experimentaltarget=NCI-H226 valuetype=GI50 valuemeasured="16.8 µM (inactive)"
compound="Cc1cc(C)c(C2CC(O)C(CO)O2)cc1C (stereo unspecified)" experimentaltarget=NCI-H226 valuetype=GI50 valuemeasured="> 100 µM (inactive)"
compound=CC(C)OP(=O)(NC(=S)c1ccccc1)OC(C)C experimentaltarget=NCI-H226 valuetype=GI50 valuemeasured="> 100 µM (inactive)"
compound=O=C(c1ccc(Cl)c(Cl)c1)N(Cc1cccnc1)C(=S)N(Cc1cccnc1)C(=O)c1ccc(Cl)c(Cl)c1 experimentaltarget=NCI-H226 valuetype=GI50 valuemeasured="31.8 µM (inactive)"
compound=N#CC(C#N)=Cc1c(O)ccc2ccccc12 experimentaltarget=NCI-H226 valuetype=GI50 valuemeasured="21.3 µM (inactive)"
compound=N#Cc1c2c(c(Nc3ccc(F)cc3)n3c1nc1ccccc13)CCC2 experimentaltarget=NCI-H226 valuetype=GI50 valuemeasured="6.81 µM (inactive)"
compound=c1ccc(CSC2(SCc3ccccc3)CCCCC2)cc1 experimentaltarget=NCI-H226 valuetype=GI50 valuemeasured="> 10 µM (inactive)"
compound=O=[N+]([O-])/C(C(Cl)=C(Cl)Cl)=C1\Nc2ccc([N+](=O)[O-])cc2N1 experimentaltarget=NCI-H226 valuetype=GI50 valuemeasured="> 100 µM (inactive)"
compound=N#C/C(=C\Nc1ccccn1)C(=O)C1CC1 experimentaltarget=NCI-H226 valuetype=GI50 valuemeasured="> 100 µM (inactive)"
